# Test: soluble on expression in E. coli; label from the status in PepcDB or PDB records
Quantity measured: soluble on expression in E. coli

sequence_entry=MGSDKIHHHHHHMTILHSTDFFKAGISTVAIEPRLPQSAFPEHHHDFHEIVIVEQGSGIHVFNGQPYTIGGGSVCFIRDHDRHLYEHTDNLCLTNVLYRAPDAFRFLAGVSQLLPQEQEGNYPSHWRVNQTVLQQVRHIVAQIEAVGSDTDTHAVASREILFMQLLVLLRKSSLAEEATNNDARLNQLLAWLEDHFAQEICWEEVAAQFSLSLRTLHRQLKQQTGLTPQRYLNRVRLMKARHLLRHSDESVTDIAYRCGFGDSNHFSTLFRREFDWSPRDIRQGRDAILQ quantity_measured="soluble on expression in E. coli" reported_value="not soluble"
sequence_entry=MGSDKIHHHHHHMVFPISLEGYHLEEVVIIGGGVAGLSCLNALLDQGISALLIEGSTIGTPKMCGEFLAPIAAQQLQLWDVDPLIPIPHAAFYAGIRQLDIHFTKPSAAISRSDVELKLAARARRLGGRIRENTYLEYTTPATERTPFYFKLSTGEIIEAKSAFFATGKLSNNKDNKKIALPYFGFKLHFSHTENDHSLKMFSLDKAYLGIVPITETISNCACLAKREAVDAATSPEEHFRHLTQSHPVLKKIFTPLDLSAIDILSGRAPAFTQKKPPNWPNSYWIGDTLASLYPAIGSGFAHSVDSAIQAVQSYLKQQPKLYRINYSKSIKTKVLLGNVFNAALLQPKVGQLALPLLKRSPKLVNLVLKKLDYV quantity_measured="soluble on expression in E. coli" reported_value="not soluble"

* * *

# Test: soluble on expression in E. coli; label from the status in PepcDB or PDB records
Quantity measured: soluble on expression in E. coli

Use these answered entries as a reference point.
sequence_entry=GMDIINNRRSIRNYKGKKVEKEKIEKLLRAAMQAPSAGNQQPWEFIVLEDRENIDKLSNFSKYANSLKTAPLAIVLLADEEKMKISEMWEQDMAAAAENILLEAAYLDLGAVWLGAQPIEERVKNLKEMFNLKSNIKPFCVISVGYPENSENKFIDRFDAKRIHIEKY reported_value=soluble
sequence_entry=MPGTEKTQHISLTTQVENRLKHQLSIGALKPGARLITKNIAQELGVSITPVREALLRLVSSSALAVAPAQAFMVPEISLESLLEINTIRTALEEMAVVAAAGKITPDREQTLNALLDEFQQALESGVMEKILLANRAFRFEIYHYADMPTLYAMIEQLWVRLGPSLHFLYDNFKLDDYQNGVNLYRKLLNALVTGDKEASRHCLQNVLQQNVATIKNQYFM reported_value="not soluble"
sequence_entry=MGSDKIHHHHHHMTSYVLTVSCPSKRGIVAALSGYLAEMGCNIVDSSQFDDLDTDRFFMRVSFISEQGASREKIEAGLAPIVDNFQMEIGLYDSTERVKVLLMVSRFGHCLNDLLYRWKIGALPIDIVGVVSNHFDYQKVVVNHDIPFHHIKVTKDNKPQAEAQLMELVQQTGTELIVLARYMQVLSDAMCQKMSGKIINIHHSFLPSFKGANPYKQAFERGVKLIGATAHYVTADLDEGPIIEQDVARVTHAQNAEDYVSIGRDVESQVLARAIHAHIHHRTFINGNKSVVFPASPGSYASERMG reported_value="not soluble"
sequence_entry=PETVCWGHVEEVELINDGSGLGFGIVGGKTSGVVVRTIVPGGLADRDGRLQTGDHILKIGGTNVQGMTSEQVAQVLRNCGNSVRMLVARDPAGDISVT reported_value=soluble
sequence_entry=MPEDILVDIKRDYVLSKLRDNERIDGRGFDEFRKVEIIPNVIEKAEGSALVKLGDTQVVVGVKMQPGEPYPDTPDRGVIIVNAELVPLASPTFEPGPPDENSIELARVVDRGIRESEAVDLSKLVIEEGEKVWIVFVDIHALDDDGNLLDASALAAIAALMNTKVPAERFDLGEDYLLPVRDLPVSVTSLIVGNKYLVDPSREEMSVGDTTLTITTDKDDNVVAMQKSGGYLLDEKLFDELLDVSINCARKLREKFKEI reported_value=soluble

Enquiry: Can you share its soluble on expression in E. coli? I mean this sequence: MGSDKIHHHHHHMSDEKKSTDIDLKNLKAGGFIKERGKDLFTVRLRVPGGRMPVARLKKIAEVAEKYGQGMVHLSVRQSVELININFRDFDAVVAELGEGTQKVASCGARVRVPTACGGCEYNPNGLVDTQKSALEVDEKLFGTSTGHHKFKVGFAGCPFDCPKSATNDVGFQGAIWPVLYADECIGCGLCDKSCTEDAIVMGDDGKPRFIPENCLYCGDCLKVCPSEAWRAEKKGYTVRIGGKWGRRPLVGTLFAEFLPEEQVFDFIAAVLDWYKEKAEGQGRIRLGDVIRAEGPDALLGYLRERFPAAVVDATIPPQRIATQIGKEKRVP
Return: not soluble

Enquiry: For the sequence MSLRKFMVLGYGEIGKLAIKHLLSHKVECIYLIVRDKSKASDLEGEIVEVLDFNEKNQVINEIDCIVSCTAAPHTVVRNEDIKTEGETIHIYDLAVPRDVDKELSEKERVILKDIDEISKIDDKNKKIRKERMEEYKHIVEESIDEFLNWLKIREVSSKIRNIKIRENEICSERIKTFSNKGNGENAKLAERMIKSTADAYVNRAIELLKSEALKGSDSYCAEIIEKIFLTEGHHHHHH , what soluble on expression in E. coli is on record?
Return: not soluble

Enquiry: Return reported soluble on expression in E. coli; argument: MGHHHHHHSHMAAAVAMETDDAGNRLRFQLELEFVQCLANPNYLNFLAQRGYFKDKAFVNYLKYLLYWKDPEYAKYLKYPQCLHMLELLQYEHFRKELVNAQCAKFIDEQQILHWQHYSRKRMRLQQALAEQQQQNNTSGK
Return: soluble

* * *

# Test: soluble on expression in E. coli; label from the status in PepcDB or PDB records
Quantity measured: soluble on expression in E. coli

sequence_entry=SSFQGPLDATVVVNLQSPTLEEKNEFPEDLRTELMQTLGSYGTIVLVRINQGQMLVTFADSHSALSVLDVDGMKVKGRAVKI quantity_measured="soluble on expression in E. coli" reported_value=soluble
sequence_entry=MAHHHHHHMVQRTLLDFVRKKDPSPNVINVDAESDEQDEAASRKRRMQGVREPALAFTKPRTENKDDICCSNNFSALITDSGWRAFLQPLTSTTNFRNIEQFIEGEKTKGKVILPPSDLIFSAFNSTPLDRLKVVLLGQDPYHNIGQAHGLCFSVLPGVRPPPSLLNMYKELTTDISGFKSPPHGYLQCWAEQGVLMLNATLTVEAHQANSHAKCGWQAFTDGVIRLLSEKHQRPIVFLLWGGFARKKITLIDQKRHLVIENAHPSPLSAAKWWGSRPFSKCNAALTQLGHSPIDWSIPMSVERRH quantity_measured="soluble on expression in E. coli" reported_value="not soluble"
sequence_entry=DVQLQESGGGLVQAGGSLRLSCAASGATGSTYDMGWFRQAPGKERESVAAINWGSAGTYYASSVRGRFTISRDNAKKTVYLQMNSLKPEDTAVYTCGAGRIGRSVFNLRRESWVTWWGQGTQVTVSS quantity_measured="soluble on expression in E. coli" reported_value=soluble
sequence_entry=SLHLGEQIWIYQGKKKEWLLGQIPEVNSALVSLNSDNGAIEAIVGGFSFEQSRFNRATQSLVQVGSSIKPFIYAAAMNKGLSLSTTLSDTPITINKQGQKPWEPKNADKRYEGPLRLRVALGKSKNMVAIRALQMSGVDYVADYLSRFGFNPDQFMATEALALGAASFTPLEMARAYAVFDNGGYLIEPYIIDRILDNQGNELFKANPALACLECNHIDLAYQEPTYFDGVKIHDEDQLRAEIDEINANPAASNTQTEDDQEPEIATTIKPQAPSLMTESIKNDASMRYAPRVISGELAFLMRSALNSAIYGEPGQNWHGTSRAIAKAFKRKDIGGKTGTTNNSKVTWYAGFGANIVTTVYVGFDDNRRDLGKGEAGAKTAMPAWIKYMKVALADKK quantity_measured="soluble on expression in E. coli" reported_value="not soluble"
sequence_entry=MGSDKIHHHHHHMQRARCYLLGERAVVLELEPPMSLESQQRIWGLAERLNHHEEVLEVIPGMNNLTVLLAHPQQVALDAIERLQRWWEESESLVFDPRDIDIPVIYGGEAGPDLAEVAAHSGLTVSQVVEAHAAAQYVVYFLGFQPGFAYLGGLNEKLHMPRRAEPRLRVPEGSVGIGGAQTGIYPLATPGGWQLIGRTSLTLFNPQTMPPTLLRPGDNVRFLPQKEGVC quantity_measured="soluble on expression in E. coli" reported_value="not soluble"
sequence_entry=MGGSHHHHHHGMASALASYFDEHDCEPSDPEQETRTNMLLELARSLFNRMDFEDLGLVVDWDHHLPPPAAKTVVENLPRTVIRGSQAELKCPVCLLEFEEEETAIEMPCHHLFHSSCILPWLSKTNSCPLCRYELPTDDDTYEEHRRDKARKQQQQHRLENLHGAMYT quantity_measured="soluble on expression in E. coli" reported_value="not soluble"

Could you now consider this next sequence?
Enquiry: Which soluble on expression in E. coli reading was recorded for the sequence MCGRFVLFTTDESLLGHPALRIFHSIHAPKGMPPARYNIAPTTIIPILRVGTTPTEAVIEPARWGLIPAWKREVTLPPLFNARAETVTTKPSFRQAFSTQRCAIPMDGYYEWHNKKPYWITTGAPTWVAGLWDSGAGMLSATMITTDSVAPLDWLHHRMPRFLNNDELAVWLRGSADEASGLLTPGDASAFHTSLADPSVGNIRNDYPELIDAPTDLFSL ?
Return: not soluble
